test system: Left cardiac atrium (Cavia porcellus); assay: Negative inotropic activity in guinea pig left atrium assessed as decrease in developed tension
pEC50: −log10 of the molar value.
Everything with pEC50 lower than 7 is N; everything else, including exactly 7, is Y.

A selection of reference data follows.
CCOC(=O)C1=C(C)NC(C)=C(C(=O)OCC)C1c1c(-c2cc([N+](=O)[O-])c(Cl)cc2Cl)nc2sc(CC)cn12 :: N
CCOC(=O)C1=C(C)NC(C)=C(C(=O)OCC)C1c1c(-c2cc([N+](=O)[O-])c(Cl)cc2Cl)nc2sc(Cl)cn12 :: N
CCOC(=O)C1=C(C)NC(C)=C(C(=O)OCC)C1c1c(-c2ccc(OC(F)(F)F)cc2)nc2sc(Br)cn12 :: N

Please indicate if the recorded pEC50 for CCOC(=O)C1=C(C)NC(C)=C(C(=O)OCC)C1c1c(-c2ccc([N+](=O)[O-])cc2)nc2sc(Cl)cn12 meets or exceeds 7. N

Please answer likewise for CCOC(=O)C1=C(C)NC(C)=C(C(=O)OCC)C1c1c(-c2ccc(Cl)cc2)nc2sccn12 Y
